// data source = paper PMC9386806

Record: IC50 reported on hCA II (Homo sapiens, UniProt P00918).
Just the number in µM, nothing appended.

Recorded results for 3 molecules are shown here.
>>> print(df.to_string())
                                   molecule  experimental_value
0  COC(=O)C1=C(N)Oc2c(c(=O)oc3cc(O)ccc23)C1c1ccccc1OCc1cc2ccccc2oc1=O (stereo not shown) [Compound 12i]                4.91
1  CCOC(=O)C1=C(N)Oc2c(c(=O)oc3cc(O)ccc23)C1c1ccccc1OCc1cc2ccccc2oc1=O (stereo not shown) [Compound 12j]                7.78
2  N#CC1=C(N)Oc2c(c(=O)oc3cc(O)ccc23)C1c1ccccc1OCc1cc2ccccc2oc1=O (stereo not shown) [Compound 12h]                4.55

Query molecule follows.
[in] For hCA II (Homo sapiens, UniProt P00918), provide IC50 of COC(=O)C1=C(N)Oc2c(c(=O)oc3ccc(C)cc23)C1c1ccccc1OCc1cc2ccccc2oc1=O (stereo not shown) [Compound 12e] please.
[out] 21.8
